- procedureSummary: Aqueous solubility by visual inspection in acetate buffer (pH 5)
- conditionNotes: sodium acetate buffer, pH 5, aqueous buffer, thermodynamic from solid
Overview of reported solubility across a group of compounds:
testReadout: solubility

{"compound": "C/C(=N\\OC(=O)N(C)C[C@@H]1CCCN1)[C@H]1CC[C@H]2[C@@H]3CCC4=CC(=O)CC[C@]4(C)[C@H]3CC[C@]12C.O=C(O)C(F)(F)F [20l]", "testReadout": "solubility", "assayValue": "> 10000 µg/mL"}
{"compound": "C/C(=N\\OC(=O)N(C)C[C@@H]1C[C@H](N(C)C)CN1)[C@H]1CC[C@H]2[C@@H]3CCC4=CC(=O)CC[C@]4(C)[C@H]3CC[C@]12C [20u]", "testReadout": "solubility", "assayValue": "> 10000 µg/mL"}
{"compound": "CNCCN(C(=O)O/N=C(\\C)[C@H]1CC[C@H]2[C@@H]3CCC4=CC(=O)CC[C@]4(C)[C@H]3CC[C@]12C)C1CCCC1.O=C(O)C(F)(F)F [20e]", "testReadout": "solubility", "assayValue": "> 10000 µg/mL"}

###

- procedureSummary: PBS stability assay at 37 °C via LC-MS/MS
- Assay type: physicochemical
- conditionNotes: PBS, 37 °C, 2 h
Overview of reported PBS, 37 °C %rem. at 2h (Table S23) across a group of compounds:

{"compound": "C/C(=N\\OC(=O)N(C)C[C@@H]1CC2(CC2)CN1)[C@H]1CC[C@H]2[C@@H]3CCC4=CC(=O)CC[C@]4(C)[C@H]3CC[C@]12C [20q]", "readoutUnits": "%", "PBS, 37 °C %rem. at 2h (Table S23)": 5}
{"compound": "CNC1(CN(C)C(=O)O/N=C(\\C)[C@H]2CC[C@H]3[C@@H]4CCC5=CC(=O)CC[C@]5(C)[C@H]4CC[C@]23C)CCC1 [20t]", "readoutUnits": "%", "PBS, 37 °C %rem. at 2h (Table S23)": 14}
{"compound": "CNCCN(CCn1ccnc1)C(=O)O/N=C(\\C)[C@H]1CC[C@H]2[C@@H]3CCC4C[C@H](O)CC[C@]4(C)[C@H]3CC[C@]12C (stereo partly drawn) [21k]", "readoutUnits": "%", "PBS, 37 °C %rem. at 2h (Table S23)": 62}
{"compound": "CNCCN(C(=O)O/N=C(\\C)[C@H]1CC[C@H]2[C@@H]3CCC4C[C@H](O)CC[C@]4(C)[C@H]3CC[C@]12C)C(C)C.O=C(O)C(F)(F)F (stereo partly drawn) [21c]", "readoutUnits": "%", "PBS, 37 °C %rem. at 2h (Table S23)": 68}
{"compound": "C/C(=N\\OC(=O)N(CCN(C)C)CCN(C)C)[C@H]1CC[C@H]2[C@@H]3CCC4=CC(=O)CC[C@]4(C)[C@H]3CC[C@]12C [20y]", "readoutUnits": "%", "PBS, 37 °C %rem. at 2h (Table S23)": 35}
{"compound": "C/C(=N\\OC(=O)N(C)C[C@@H]1CCN1)[C@H]1CC[C@H]2[C@@H]3CCC4=CC(=O)CC[C@]4(C)[C@H]3CC[C@]12C [20o]", "readoutUnits": "%", "PBS, 37 °C %rem. at 2h (Table S23)": 14}
{"compound": "C/C(=N\\OC(=O)N(C)C[C@@H]1CCCN1)[C@H]1CC[C@H]2[C@@H]3CCC4C[C@H](O)CC[C@]4(C)[C@H]3CC[C@]12C (stereo partly drawn) [21l]", "readoutUnits": "%", "PBS, 37 °C %rem. at 2h (Table S23)": 16}
{"compound": "CNCCN(C(=O)O/N=C(\\C)[C@H]1CC[C@H]2[C@@H]3CCC4C[C@H](O)CC[C@]4(C)[C@H]3CC[C@]12C)C1CC1.O=C(O)C(F)(F)F (stereo partly drawn) [21b]", "readoutUnits": "%", "PBS, 37 °C %rem. at 2h (Table S23)": 73}
{"compound": "CNCCN(CCn1ccnc1)C(=O)O/N=C(\\C)[C@H]1CC[C@H]2[C@@H]3CCC4=CC(=O)CC[C@]4(C)[C@H]3CC[C@]12C [20k]", "readoutUnits": "%", "PBS, 37 °C %rem. at 2h (Table S23)": 70}
